tested on: L1210 leukemia ip in BDF1 mice, survival T/C; experiment: NCI In Vivo Anticancer Drug Screen. Data for tumor model L1210 Leukemia (intraperitoneal) in B6D2F1 (BDF1) mice; details: endpoint: mean survival time; dose: 20.0 mg/kg/injection; schedule: Q01DX001 (ip); vehicle: carboxymethylcellulose (CMC)
Inconclusive results and toxic doses are left out. Cut-off read from the data, not from the text of the source: active = T/C of 150% or more; inactive = T/C below 125%.
Choose the fitting class; nothing outside active, inactive is accepted.

Record excerpt, results attached:
>  <chemicalString>
CNC(=S)N/N=C(/C)CCc1c(C)nn(C(=S)NC)c1C

>  <qualitativeLabel>
inactive

$$$$
>  <chemicalString>
Cn1c(CCCC(=O)O)nc2cc(N(CCCl)CCCl)ccc21

>  <qualitativeLabel>
inactive

$$$$
>  <chemicalString>
O=c1[nH]cc(N(CCCl)CCCl)c(=O)[nH]1

>  <qualitativeLabel>
inactive

$$$$

Okay, now this compound:
Input line: Which outcome did this test record for the compound COc1cc(N(CCCl)CCCl)ccc1C=Nc1ccccc1C(=O)O ?
Output line: active

* * *

T/C: recorded values
tested on: L1210 leukemia ip in BDF1 mice, survival T/C; experiment: NCI In Vivo Anticancer Drug Screen. Data for tumor model L1210 Leukemia (intraperitoneal) in B6D2F1 (BDF1) mice; conditions: endpoint: mean survival time; dose: 400.0 mg/kg/injection; schedule: Q04DX003 (ip); vehicle: saline; higher = longer survival
Inconclusive results and toxic doses are left out.

Past entries and their recorded results:
>  <molecule>
Nc1ncnc2c1nnn2CCCCC(N)C(=O)O (stereo not drawn)

>  <T/C>
95 % of control

$$$$
>  <molecule>
CCOC(=O)CCCSCCCC(=O)OCC

>  <T/C>
88 % of control

$$$$
>  <molecule>
N#CCCOCCOCCC#N

>  <T/C>
95 % of control

$$$$
>  <molecule>
CN(C)CCOC(=O)C1C2CC3OC(=O)C1C3C2 (stereo not drawn)

>  <T/C>
104 % of control

$$$$
>  <molecule>
CCOC(=O)c1ccc([N+](=O)[O-])s1

>  <T/C>
111 % of control

$$$$
>  <molecule>
Cc1ccccc1OCCO

>  <T/C>
106 % of control

$$$$

Input line: Record request: T/C value, item COc1ccc2c3c(ccc2c1)C(=O)C(C)(C#N)CC3 (stereo not drawn)
Output line: 94 % of control

Input line: // same read-out, input: CC1C(=O)Nc2ccccc2N1C(=O)CN1CCCC1 (stereo not drawn)
Output line: 94 % of control

Input line: // same read-out, input: COn1c(CC(=O)C(=O)O)cccc1=O
Output line: 94 % of control

Input line: // same read-out, input: Cc1nccnc1N
Output line: 102 % of control

* * *

test system: L1210 leukemia ip in BDF1 mice, survival T/C; assay: NCI In Vivo Anticancer Drug Screen. Data for tumor model L1210 Leukemia (intraperitoneal) in B6D2F1 (BDF1) mice; conditions: endpoint: mean survival time; dose: 50.0 mg/kg/injection; schedule: Q04DX002 (ip); vehicle: saline with Tween-80; higher = longer survival
Toxic doses and inconclusive results are not listed.
T/C: recorded values

>  <compound>
N=C(N)SCc1cccc(Cl)c1

>  <readoutValue>
93 % of control

$$$$
>  <compound>
C1CCC2(CC1)CCCO2

>  <readoutValue>
87 % of control

$$$$

Input line: Record request: T/C value, item O=C(O)CC1(c2ccccc2)OC(=O)c2ccccc21 (centres undefined)
Output line: 92 % of control

Input line: // same read-out, input: CCCCCP(=O)(CCCCC)C1CCCC1
Output line: 100 % of control

* * *

System: L1210 leukemia ip in BDF1 mice, survival T/C
Assay: NCI In Vivo Anticancer Drug Screen. Data for tumor model L1210 Leukemia (intraperitoneal) in B6D2F1 (BDF1) mice
Conditions: endpoint: mean survival time; dose: 200.0 mg/kg/injection; schedule: Q01DX009 (ip); vehicle: saline with Tween-80; higher = longer survival
Experimental: The antitumor activity of compounds was measured in mice bearing transplantable tumors. Survival or tumor size were measured and the results are expressed as the measurement made in the treated group (T) divided by the measurement made in the vehicle treated control group (C). The tumor model used in this assay is L1210 Leukemia (intraperitoneal) in B6D2F1 (BDF1) mice
Inconclusive results and toxic doses are left out.
T/C: recorded values

Past entries and their recorded results:
>  <compound>
c1cc[c]([Sn]([c]2ccccc2)([c]2ccccc2)[c]2ccccc2)cc1

>  <testedOn>
L1210 leukemia ip in BDF1 mice, survival T/C

>  <readoutValue>
100 % of control

$$$$
>  <compound>
CCOC(=O)c1cc(Cl)cc(Cl)c1N/N=[N+](\C)[O-]

>  <testedOn>
L1210 leukemia ip in BDF1 mice, survival T/C

>  <readoutValue>
93 % of control

$$$$
>  <compound>
CCCCCCCCCNC(=O)Nc1cccc(Cl)c1C

>  <testedOn>
L1210 leukemia ip in BDF1 mice, survival T/C

>  <readoutValue>
87 % of control

$$$$
>  <compound>
C/C(=N\N=C(/C)c1ccc(O)cc1)c1ccc(O)cc1

>  <testedOn>
L1210 leukemia ip in BDF1 mice, survival T/C

>  <readoutValue>
89 % of control

$$$$

Input line: Record request: T/C value, item FC(F)(F)c1nc2cccc3c2n1CCC3
Output line: 101 % of control

Input line: // same read-out, input: N#CSCCC(c1ccccc1)(c1ccccc1)c1ccccc1
Output line: 90 % of control

Input line: // same read-out, input: COc1ccc(C2CCc3cc4c(cc3C2=O)OCO4)cc1OC (stereo not drawn)
Output line: 98 % of control

* * *

tested on: L1210 leukemia ip in BDF1 mice, survival T/C; test: NCI In Vivo Anticancer Drug Screen. Data for tumor model L1210 Leukemia (intraperitoneal) in B6D2F1 (BDF1) mice; settings: endpoint: mean survival time; dose: 400.0 mg/kg/injection; schedule: Q04DX002 (ip); vehicle: Klucel (hydroxypropylcellulose) (HPC); higher = longer survival
Inconclusive results and toxic doses are left out.
readoutName: T/C

>  <compound>
C/C=C\c1ccc(OC(=O)NC)c(OC)c1

>  <T/C>
103 % of control

$$$$

Input line: Record request: T/C value, item NC(=O)CCC(NC(=O)OCc1ccccc1)C(=O)O (stereo unspecified)
Output line: 105 % of control

Input line: // same read-out, input: COc1c(-c2cc(C)nc(NC#N)n2)c(O)cc2occc12
Output line: 98 % of control

Input line: // same read-out, input: CC(C)OC(=O)Nc1cccc(Br)c1
Output line: 95 % of control

Input line: // same read-out, input: Cc1ccc(S(=O)(=O)N(CCCc2c(C)[nH]c(=S)[nH]c2=O)c2ccccc2)cc1
Output line: 100 % of control

Input line: // same read-out, input: O=S(=O)(NC(CCl)=NC1CCCCC1)c1ccccc1
Output line: 104 % of control

Input line: // same read-out, input: CCn1c(C)nc2cc(N=Cc3ccc(N(CCCl)CCCl)cc3)ccc21
Output line: 106 % of control

Input line: // same read-out, input: O=C(COc1ccc(Br)cc1)Nc1ccc(Cl)cc1
Output line: 89 % of control

Input line: // same read-out, input: CCOC(=O)C1C=NC([N+](=O)[O-])=C1Br (stereo unspecified)
Output line: 93 % of control

Input line: // same read-out, input: O=[N+]([O-])c1ccc(-c2ccc([N+](=O)[O-])cc2)cc1
Output line: 95 % of control

Input line: // same read-out, input: CN(CC#CCOc1ccc(Cl)cc1Cl)c1ccccc1
Output line: 91 % of control

* * *

system: L1210 leukemia ip in BDF1 mice, survival T/C; test: NCI In Vivo Anticancer Drug Screen. Data for tumor model L1210 Leukemia (intraperitoneal) in B6D2F1 (BDF1) mice; conditions: endpoint: mean survival time; dose: 25.0 mg/kg/injection; schedule: Q01DX001 (ip); vehicle: saline; higher = longer survival
Inconclusive results and toxic doses are left out.
readoutName: T/C

>  <molecule>
COC1OC(CO)C(O)C1n1cnc2c(N)ncnc21 (stereo not given)

>  <readoutName>
T/C

>  <readoutValue>
90 % of control

$$$$

Input line: Record request: T/C value, item CCOC(=O)c1cnc(SCc2ccccc2Cl)nc1N1CC1
Output line: 98 % of control

Input line: // same read-out, input: C=C1CC[N+]2(CC(=O)c3ccc(Br)cc3)CCCC12 (stereo not given)
Output line: 92 % of control

Input line: // same read-out, input: O=c1[nH]c(=O)c2cccnc2[nH]1
Output line: 100 % of control

Input line: // same read-out, input: CCCCCCCCCCCCCC[N+]1(C)CCS(=O)CC1 (stereo not given)
Output line: 102 % of control

* * *

T/C: recorded values
Test system: L1210 leukemia ip in BDF1 mice, survival T/C
Test: NCI In Vivo Anticancer Drug Screen. Data for tumor model L1210 Leukemia (intraperitoneal) in B6D2F1 (BDF1) mice
Settings: endpoint: mean survival time; dose: 50.0 mg/kg/injection; schedule: Q01DX009 (ip); vehicle: Klucel (hydroxypropylcellulose) (HPC); higher = longer survival
Protocol: The antitumor activity of compounds was measured in mice bearing transplantable tumors. Survival or tumor size were measured and the results are expressed as the measurement made in the treated group (T) divided by the measurement made in the vehicle treated control group (C). The tumor model used in this assay is L1210 Leukemia (intraperitoneal) in B6D2F1 (BDF1) mice
Inconclusive results and toxic doses are left out.

>  <molecule>
O=C1OC2CC3CC1C2C3 (stereo not drawn)

>  <T/C>
88 % of control

$$$$
>  <molecule>
O=C(c1ccccc1)N(Nc1ccccc1)c1ccccc1

>  <T/C>
94 % of control

$$$$
>  <molecule>
CCOc1ccc2nc(/C=C/c3ccc(N(C)C)cc3)ccc2c1

>  <T/C>
94 % of control

$$$$
>  <molecule>
CSc1nccc(=O)[nH]1

>  <T/C>
100 % of control

$$$$
>  <molecule>
N#CCc1c(Cl)ccc(Cl)c1Cl

>  <T/C>
94 % of control

$$$$

Turning to the following molecule.
Input line: Record request: T/C value, item CC(C)=CCC(N)CC=C(C)C
Output line: 106 % of control
